We begin with a simple list: items and their reported self-cleavage.
B1: Twister Ribozyme (parent)
chain: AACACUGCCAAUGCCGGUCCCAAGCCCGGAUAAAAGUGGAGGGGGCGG

- Variants of: B1
- protocol.notes: self-cleavage, relative activity (ratio to wild type); higher = more cleavage; co-transcriptional

Known self-cleavage results, listed for orientation:
{"columns": ["sequence", "self-cleavage"],
 "data": [
  ["AACACUGCCAAUGCCGGUCCCAAGCCCGGAUAAACGUGGAGCGGGCGG [A35C G42C]", 0.381],
  ["AACACUGCCAAUGCCGGUCCCAAGCCCCCAUAAAAGUGGAGGGGGCGG [G28C G29C]", 0.865]
]}

Exercise: Request the reported self-cleavage associated with AACACUGCCAAUGCCGGUCCCAAACCCGGAUAAAAGUGGAGGGGGCGG [G24A]
Solution: 0.125

Exercise: Request the reported self-cleavage associated with AACACUGCCAAUCCCGGUCCCAAGGCCGGAUAAAAGUGGAGGGGGCGG [G13C C25G]
Solution: 0.101

Exercise: Request the reported self-cleavage associated with AACACUGCCAAUGCCGGUCCCAAGCCCGGAAAGAAGUGGAGGGGGCGG [U31A A33G]
Solution: 0.82
